Target: EGFR(D770_N771insSVD) expressing Ba/F3 stable cell line (Homo sapiens, UniProt P00533, DUP768-770, cells depend on it)
Sequence (P00533 with tags, fused parts or gaps DUP768-770): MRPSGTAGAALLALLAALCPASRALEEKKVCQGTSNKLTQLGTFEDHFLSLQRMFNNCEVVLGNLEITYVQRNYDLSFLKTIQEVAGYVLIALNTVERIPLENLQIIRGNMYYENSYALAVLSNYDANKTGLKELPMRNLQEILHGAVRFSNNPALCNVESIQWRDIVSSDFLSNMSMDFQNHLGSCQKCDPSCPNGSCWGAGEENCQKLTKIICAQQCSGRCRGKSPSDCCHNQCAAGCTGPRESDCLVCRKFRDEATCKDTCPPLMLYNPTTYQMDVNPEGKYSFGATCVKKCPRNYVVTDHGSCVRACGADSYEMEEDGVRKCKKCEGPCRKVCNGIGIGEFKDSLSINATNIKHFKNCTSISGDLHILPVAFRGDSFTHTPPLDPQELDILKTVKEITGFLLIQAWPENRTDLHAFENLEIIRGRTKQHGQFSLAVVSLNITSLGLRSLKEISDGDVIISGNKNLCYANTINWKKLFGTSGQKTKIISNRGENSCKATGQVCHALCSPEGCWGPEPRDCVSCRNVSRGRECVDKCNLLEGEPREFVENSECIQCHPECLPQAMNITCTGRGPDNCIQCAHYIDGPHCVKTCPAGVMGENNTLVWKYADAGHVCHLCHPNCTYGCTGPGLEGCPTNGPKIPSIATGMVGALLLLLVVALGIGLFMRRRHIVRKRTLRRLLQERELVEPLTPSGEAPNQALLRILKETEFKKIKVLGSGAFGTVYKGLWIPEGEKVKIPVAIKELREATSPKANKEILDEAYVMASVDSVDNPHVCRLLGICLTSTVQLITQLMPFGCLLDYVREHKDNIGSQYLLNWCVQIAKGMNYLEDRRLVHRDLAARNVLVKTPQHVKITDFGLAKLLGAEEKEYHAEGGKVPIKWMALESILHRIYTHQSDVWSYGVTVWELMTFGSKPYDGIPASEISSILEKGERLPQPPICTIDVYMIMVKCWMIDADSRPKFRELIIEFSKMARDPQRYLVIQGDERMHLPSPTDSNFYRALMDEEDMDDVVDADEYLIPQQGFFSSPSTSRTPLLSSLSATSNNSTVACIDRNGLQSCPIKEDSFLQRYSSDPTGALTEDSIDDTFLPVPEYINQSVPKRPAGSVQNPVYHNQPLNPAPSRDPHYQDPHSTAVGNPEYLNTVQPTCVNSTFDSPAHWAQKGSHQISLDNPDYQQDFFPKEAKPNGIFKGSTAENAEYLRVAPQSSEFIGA
Experiment: Cellular proliferation (Alamar Blue) assay, EGFR D770_N771insSVD Ba/F3
Type: cell-based
Details: EGFR D770_N771insSVD Ba/F3, 72 hr, read-out: D770 IC50
Rule: GI50 below 100 nM gives rule met, anything at or above gives rule not met.

{"columns": ["compound", "className"],
 "data": [
  ["COc1cc(CN2Cc3cnc(Nc4cn(C)nc4Cl)nc3N(c3cccc(NC(=O)/C=C/CN(C)C)c3)C2=O)ccn1", "rule not met"],
  ["C=CC(=O)NC1CCCC(N2C(=O)N(c3ccc(F)cc3)Cc3cnc(Nc4cn(C)nc4Cl)nc32)C1 (stereo not shown)", "rule not met"],
  ["C=CC(=O)Nc1cccc(N2C(=O)N(c3ccccc3)Cc3cnc(Nc4cn(C)nc4F)nc32)c1", "rule met"],
  ["C=CC(=O)Nc1cccc(N2C(=O)N(Cc3ccccc3)Cc3cnc(Nc4cnn(CCOC)c4)nc32)c1", "rule met"],
  ["Cn1cc(Nc2ncc3c(n2)N(c2cccc(NC(=O)/C=C/CF)c2)C(=O)N(Cc2ccccc2)C3)c(Cl)n1", "rule met"]
]}

In: Check if GI50 falls below 100 nM for CN(C)C/C=C/C(=O)Nc1cccc(N2C(=O)N(Cc3ccccc3)Cc3cnc(Nc4cnoc4)nc32)c1 .
Out: rule not met

In: Find out if reported GI50 for C=CC(=O)Nc1cccc(N2C(=O)N(Cc3ccccc3)Cc3cnc(Nc4cccc5c4CCN5C)nc32)c1 is less than 100 nM
Out: rule not met
